Property: Emax; scope: individual compounds
experimental system: glucokinase (GK), residues 12-465 of the human enzyme (Homo sapiens, UniProt P35557)
Construct: I.D. No. 1 corresponds to residues 12-465 of glucokinase; made in house; host or cells: E. coli DH10b-Tlr
Sequence (P35557 with tags, fused parts or gaps isoform P35557-2): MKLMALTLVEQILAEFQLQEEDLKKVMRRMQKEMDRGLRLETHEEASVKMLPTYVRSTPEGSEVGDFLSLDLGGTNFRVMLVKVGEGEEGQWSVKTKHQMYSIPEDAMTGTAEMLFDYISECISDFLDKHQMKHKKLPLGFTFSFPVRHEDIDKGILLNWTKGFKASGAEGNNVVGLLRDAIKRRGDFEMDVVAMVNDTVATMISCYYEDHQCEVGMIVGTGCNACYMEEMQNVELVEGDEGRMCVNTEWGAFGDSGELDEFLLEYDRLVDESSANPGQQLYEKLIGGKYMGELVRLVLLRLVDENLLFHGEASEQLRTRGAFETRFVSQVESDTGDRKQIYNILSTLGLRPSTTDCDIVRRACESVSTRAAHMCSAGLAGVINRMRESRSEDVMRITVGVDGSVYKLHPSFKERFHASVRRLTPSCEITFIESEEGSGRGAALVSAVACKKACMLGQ
experimental details: Enzymatic glucokinase activity assay (KinaseGlo luminescence, ATP consumption)
Assay type: biochemical
test parameters: calculated maximal gain in GK enzyme activity at a saturating concentration of the compound; 5 μM ATP, 5 mM Glucose; read-out: % ACTmax

Below: 2 compounds and their reported Emax.
| structure notation | result value |
| --- | --- |
| O=C(Nc1nccs1)[C@H](CC1CCCCC1)N1CCN(S(=O)(=O)c2ccc(F)cc2)CC1=O | 97.1 to 107% |
| O=C(Nc1nccs1)[C@H](CC1CCCCC1)N1CCN(S(=O)(=O)Cc2ccc(C(F)(F)F)cc2)CC1=O | ≤ 74% |

Please find the next compound below.
Req: What value of Emax has been recorded for this entry: O=C(Nc1ncc(Cl)s1)[C@H](CC1CCOCC1)N1CCN(S(=O)(=O)c2cccs2)CC1=O
Resp: 74.1 to 97%

* * *

Property: EC50; scope: individual molecules
experimental system: glucokinase (GK), residues 12-465 of the human enzyme (Homo sapiens, UniProt P35557)
Construct: I.D. No. 1 corresponds to residues 12-465 of glucokinase; made in house; host or cells: E. coli DH10b-Tlr
experimental details: Enzymatic glucokinase activity assay (KinaseGlo luminescence, ATP consumption)
Format: biochemical
test parameters: GK activation; 5 μM ATP, 5 mM Glucose; Kact = concentration giving 50% of the maximal increase in GK activity; read-out: pKact

Below: 3 molecules and their reported EC50.
| structure notation | EC50 |
| --- | --- |
| O=C(Nc1nccs1)[C@H](CC1CCCCC1)N1CCN(C(=S)NCc2ccc(F)cc2)CC1=O | 0.794 to 1.26 µM |
| O=C(Nc1nccs1)[C@H](CC1CCCCC1)N1CCN(S(=O)(=O)Cc2cccc(C(F)(F)F)c2)CC1=O | 1.58 to 2.51 µM |
| Cc1n[nH]c(C)c1S(=O)(=O)N1CCN([C@@H](CC2CCCCC2)C(=O)Nc2nccs2)C(=O)C1 | ≥ 3.16 µM |

Please find the next molecule below.
Req: What value of EC50 has been recorded for this entry: COc1cccc(S(=O)(=O)N2CCN([C@@H](CC3CCCCC3)C(=O)Nc3nccs3)C(=O)C2)c1
Resp: 0.794 to 1.26 µM

meta.source: patent US8173645B2
